Sourced from patent US20260226068A1

Molecular target: IL-17A/F (Homo sapiens, UniProt Q16552+Q96PD4)
Sequence (Q16552 24-155): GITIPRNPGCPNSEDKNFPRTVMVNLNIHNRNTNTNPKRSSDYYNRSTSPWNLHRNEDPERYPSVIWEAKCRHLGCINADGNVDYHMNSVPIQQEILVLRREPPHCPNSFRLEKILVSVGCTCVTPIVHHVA
Sequence (Q96PD4 31-163): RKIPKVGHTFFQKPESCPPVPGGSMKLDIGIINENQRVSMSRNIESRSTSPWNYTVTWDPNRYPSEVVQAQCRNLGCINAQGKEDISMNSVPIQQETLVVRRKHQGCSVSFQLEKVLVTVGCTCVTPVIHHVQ
Experiment: IL-17A/F HEK-Blue cell assay (SEAP reporter)
Conditions: HEK-Blue IL-17A reporter cells, IL17A/F 5 ng/mL, 20 hours, SEAP read at A630; read-out: HEK-Blue IL17AF (IC50 for IL-17A/F inhibition)

# Compound, IC50
rows = [
    ("CCn1nccc1C(=O)N[C@H](c1cn2nc(C[C@H]3C[C@@H](C(F)(F)F)CNC3=O)c(C3CCCN(C)C3)nc2n1)C1CCC(F)(F)CC1 (single isomer, unassigned)", "> 1 µM"),
    ("CCn1nccc1C(=O)N[C@H](c1cn2nc(C[C@H]3C[C@@H](C(F)(F)F)CNC3=O)c(C3CCCOC3)nc2n1)[C@@H]1CCCC(F)(F)C1 (single isomer, unassigned) [Compound 69]", "0.1 to 1 µM"),
    ("CC(C)n1nccc1C(=O)N[C@H](c1cn2nc(CC3C[C@@H](C(F)(F)F)CNC3=O)c(N3CC4CC(C3)O4)nc2n1)[C@H]1CCCC(F)(F)C1 (single isomer, unassigned) [Compound 128]", "0.1 to 1 µM"),
    ("CCn1nccc1C(=O)N[C@H](c1cn2nc(C[C@H]3C[C@@H](C(F)(F)F)CNC3=O)cnc2n1)[C@H]1CC[C@H](C)CC1", "> 1 µM"),
    ("CCn1nccc1C(=O)N[C@H](c1cn2nc(C[C@H]3C[C@@H](C(F)(F)F)CNC3=O)c(CN3C(C)CC3C)nc2n1)C1CCC(F)(F)CC1 (some centres unmarked)", "> 1 µM"),
]

---

Listing of entries alongside the reported IC50.
Target: IL-17A/F (Homo sapiens, UniProt Q16552+Q96PD4)
Test: IL-17A/F HEK-Blue cell assay (SEAP reporter)
Settings: HEK-Blue IL-17A reporter cells, IL17A/F 5 ng/mL, 20 hours, SEAP read at A630; read-out: HEK-Blue IL17AF (IC50 for IL-17A/F inhibition)
Quantity Measured: IC50

# Compound, Value Measured
data = [
    ("Cc1nccnc1C(=O)N[C@H](c1cn2nc(C[C@H]3C[C@@H](C(F)(F)F)CNC3=O)c(C3CCOCC3)nc2n1)C1CCC(F)(F)CC1", "> 1000 nM"),
    ("CCn1nccc1C(=O)N[C@H](c1cn2nc(C[C@H]3C[C@@H](C(F)(F)F)CNC3=O)c(C3CCOC3)nc2n1)[C@H]1CCCC(F)(F)C1 (single isomer, unassigned) [Compound 203]", "< 100 nM"),
    ("CCn1nccc1C(=O)N[C@H](c1cn2nc(C[C@H]3C[C@@H](C(F)(F)F)CNC3=O)c(N(C)CCOC)nc2n1)C1CCC(F)(F)CC1", "100 to 1000 nM"),
    ("CCn1nccc1C(=O)N[C@H](c1cn2nc(C[C@H]3C[C@@H](C(F)(F)F)CNC3=O)c(CN3CCC(F)CC3)nc2n1)C1CCC(F)(F)CC1", "100 to 1000 nM"),
    ("CCn1nccc1C(=O)N[C@H](c1cn2nc(C[C@@H]3C[C@H](C)CNC3=O)c(C(C)C)nc2n1)C1CCC(F)(F)CC1", "> 1000 nM"),
    ("Cc1nonc1C(=O)N[C@H](c1cn2nc(C[C@H]3C[C@H](C)CNC3=O)c(C3CCOCC3)nc2n1)C1CCC(F)(F)CC1", "> 1000 nM"),
    ("CCn1nccc1C(=O)N[C@H](c1cn2nc(C[C@H]3C[C@@H](C(F)(F)F)CNC3=O)c(C3CCNCC3)nc2n1)C1CCC(F)(F)CC1", "> 1000 nM"),
    ("CCc1nonc1C(=O)N[C@H](c1cn2nc(C[C@H]3C[C@@H](C)CNC3=O)c(C3CCOCC3)nc2n1)C1CCC(F)(F)CC1", "> 1000 nM"),
    ("CC(C)c1nocc1C(=O)N[C@H](c1cn2nc(C[C@H]3C[C@@H](C(F)(F)F)CNC3=O)cnc2n1)C1CCC(F)(F)CC1", "> 1000 nM"),
    ("CCn1nccc1C(=O)N[C@H](c1cn2nc(C[C@H]3C[C@@H](C(F)(F)F)CNC3=O)c(CN3CCCCC3)nc2n1)C1CCC(F)(F)CC1", "> 1000 nM"),
    ("CCn1nccc1C(=O)N[C@H](c1cn2nc(C[C@H]3C[C@@H](C(F)(F)F)CNC3=O)c(N3CC4CCC(C3)N4C)nc2n1)C1CCC(F)(F)CC1", "100 to 1000 nM"),
    ("CCn1nccc1C(=O)N[C@H](c1cn2nc(CC3C[C@@H](C(F)(F)F)CNC3=O)cnc2n1)C1CCC(F)(F)CC1 (single isomer, unassigned) [Compound 5]", "> 1000 nM"),
]
